# Tested on: Yap1 mRNA
# assay_procedure: Antisense inhibition of human Yap1 in A-431 cells by cEt gapmers, single dose (Example 3, RTS36584)
# Assay type: cell-based
# conditions: Table 28; Yap1 mRNA as percent of untreated control; 3-10-3 cEt gapmers targeting SEQ ID NO.: 1, and 2
# Procedure: Modified oligonucleotides were designed to target a Yap1 nucleic acid and were tested for their effect on Yap1 mRNA level in vitro. The modified oligonucleotides were tested in a series of experiments that had similar culture conditions. […] After a treatment period of approximately 48 hours, RNA was isolated from the cells and Yap1 mRNA levels were measured by quantitative real-time RTPCR. […] Yap1 mRNA levels were normalized to total RNA content, as measured by RIBOGREEN®. […]
Strand notation (5' to 3'): a small letter for the sugar, then the base; units joined by * are phosphorothioate-linked, units joined directly phosphodiester-linked; [ ] holds rarer units or linkages, { } end groups; capitals alone tell only the bases. k = constrained ethyl (cEt); [5mC] = 5-methylcytosine; d = 2'-deoxy (DNA)
Tag: yes (1) if measured YAP1 (% UTC) is not below 40 % UTC, no (0) if it is.

Please indicate if the recorded YAP1 (% UTC) for 1075214 (kA*kA*k[5mC]*dA*dA*dT*dA*dA*dA*dG*dG*dG*dT*k[5mC]*k[5mC]*kT; antisense) [compound 1075214] meets or exceeds 40 % UTC.
yes (1)

Please indicate if the recorded YAP1 (% UTC) for 1075022 (antisense kA*kT*kT*dT*dA*d[5mC]*dA*dA*d[5mC]*d[5mC]*dT*dA*dG*kA*kT*kT) [compound 1075022] meets or exceeds 40 % UTC.
yes (1)

Please indicate if the recorded YAP1 (% UTC) for 1075630 (antisense kT*kA*kT*dA*dA*d[5mC]*d[5mC]*dA*dA*dA*dT*dG*d[5mC]*k[5mC]*kG*k[5mC]) [compound 1075630] meets or exceeds 40 % UTC.
yes (1)

Please indicate if the recorded YAP1 (% UTC) for 1076174 (kG*kA*kT*dA*dT*dA*dT*dG*dG*dT*dA*dG*d[5mC]*kA*kT*kA; antisense) [compound 1076174] meets or exceeds 40 % UTC.
no (0)

Please indicate if the recorded YAP1 (% UTC) for 1076014 (kA*kA*kT*d[5mC]*dA*dA*d[5mC]*d[5mC]*dT*dA*dT*dG*dA*kG*kG*kT; antisense) [compound 1076014] meets or exceeds 40 % UTC.
yes (1)

Please indicate if the recorded YAP1 (% UTC) for 1075726 (kA*kG*kT*dT*dA*dT*d[5mC]*d[5mC]*dT*dA*dT*d[5mC]*dT*kG*kT*k[5mC]; antisense) [compound 1075726] meets or exceeds 40 % UTC.
no (0)
